This section presents compounds with their documented IC50 values.
Target: human recombinant D-amino acid oxidase (Homo sapiens (Human))
Sequence (P14920 whole entry): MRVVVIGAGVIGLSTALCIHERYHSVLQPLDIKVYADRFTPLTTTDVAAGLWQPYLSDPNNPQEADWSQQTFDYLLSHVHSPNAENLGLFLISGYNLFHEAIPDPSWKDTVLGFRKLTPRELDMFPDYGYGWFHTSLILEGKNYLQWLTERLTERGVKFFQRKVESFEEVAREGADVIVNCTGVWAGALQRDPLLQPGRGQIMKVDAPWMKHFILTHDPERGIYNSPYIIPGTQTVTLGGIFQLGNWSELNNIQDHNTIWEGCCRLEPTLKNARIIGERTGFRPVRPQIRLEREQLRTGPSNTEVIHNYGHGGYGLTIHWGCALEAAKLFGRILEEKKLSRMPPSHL
Assay: In vitro D-amino acid oxidase (DAAO) assay, 96-well plate
Type: biochemical
Conditions: human recombinant DAAO; D-serine 5 mM, FAD 1 μM, 20 min, room temperature, Tris buffer pH 8.5; read-out: Inhibition of DAAO IC50
Attribute measured: IC50 (nM)

* O=c1[nH]c(=O)n(CCc2ccc(-c3ccccc3F)cc2)nc1O | 80
* O=c1[nH]c(=O)n(CCc2ccccc2F)nc1O | 80
* O=c1[nH]c(=O)n(Cc2cccc3c(F)cccc23)nc1O [Compound 10s] | 80
* O=c1[nH]c(=O)n(CCc2cccc3ccccc23)nc1O | 100
* O=c1[nH]c(=O)n(CCn2cccc2)nc1O [Compound 10c] | 100
* Cc1ccc(CCn2nc(O)c(=O)[nH]c2=O)cc1 | 100
* O=c1[nH]c(=O)n(CCc2cccc(C(F)(F)F)c2)nc1O | 90
* O=c1[nH]c(=O)n(CCc2ccc(C(F)(F)F)cc2)nc1O | 80
* O=c1[nH]c(=O)n(CCc2ccccc2)nc1O | 80
* O=c1[nH]c(=O)n(Cc2ccc3cc(F)ccc3c2)nc1O | 100
